- Measurement Target: T1, CaBdf1 BD1 (GST-tagged, wild-type) (Candida albicans (strain SC5314 / ATCC …, UniProt Q5A4W8))
- T1 chain: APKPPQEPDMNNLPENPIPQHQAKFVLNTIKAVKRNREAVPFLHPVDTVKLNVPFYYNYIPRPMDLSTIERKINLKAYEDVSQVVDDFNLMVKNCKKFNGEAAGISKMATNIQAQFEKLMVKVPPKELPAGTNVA
- Assay Protocol: histone peptide array (Active Motif MODified), 1 uM GST-tagged bromodomain, anti-GST detection, normalized mean intensity
Numbered stars: 1 amine (or outer) side, 2 acyl side, 3 side chain; on linkers, the order of the positions; unused ones are H or OH. Square brackets hold non-standard residues; d marks the D form. Ends that are not written are not given here. Arg(Me2a) = CN(C)C(=N)NCCC[C@H](N)C(=O)O; Kac = CC(=O)NCCCC[C@H](N[*:1])C(=O)[*:2]; Lys(Me3) = C[N+](C)(C)CCCC[C@H](N)C(=O)O; Arg(Me2s) = CN=C(NC)NCCC[C@H](N)C(=O)O; Lys(Me2) = CN(C)CCCC[C@H](N)C(=O)O; pS = N[C@@H](COP(=O)(O)O)C(=O)O; Lys(Me) = CNCCCC[C@H](N)C(=O)O; Me2a = not defined here
What binding score was measured for each of the following?

Tell us which binding score value is on record for AR(Me2a)TK(Me2)QTARKSTGGKAPRKQ (reading uncertain) 0.00109

Tell us which binding score value is on record for AR(Me2a)TK(Me)QTAR(Me2s)K(Ac)STGGKAPRKQ (reading uncertain) 0.0341

Tell us which binding score value is on record for AR(me2s)TK(Me)QTARKSTGGKAPRKQ 0.00326

Tell us which binding score value is on record for ARTKQTARKSTGGKAPRKQ (A Rme2s T Kme3 Q T A Rme2a Kme1 S T G G K A P R K Q) 0.0272

Tell us which binding score value is on record for SGRGKGGKGLGKGGAKRHR (pS G Rme2a G K G G K G L G K G G A K R H R) [H4 1-19] 0.00471

Tell us which binding score value is on record for PDPAK(Ac)SAPAPKK(Ac)G[pS]K(Ac)KAVT [H2B 1-19] 0.0982

Tell us which binding score value is on record for PRKQLATKAAR(Me2s)K(Me2)[pS]APATGG [H3 16-35] 0.00363

Tell us which binding score value is on record for ARTK(Me3)QTAR(Me2a)K(Ac)STGGKAPRKQ (reading uncertain) 0.0359

Tell us which binding score value is on record for ARTKQTARKSTGGKAPRKQ (A R T K Q T A R Kme1 S pT G G K A P R K Q) 0.00326

Tell us which binding score value is on record for ARTKQTARKSTGGKAPRKQ (A Rme2a T Kme2 Q T A Rme2a Kme2 S T G G K A P R K Q) 0.00399

Tell us which binding score value is on record for AR(Me2s)TK(Me3)QTAR(Me2s)K(Ac)STGGKAPRKQ 0.017

Tell us which binding score value is on record for A[Arg(Me2a)]T[Lys(Me)]QTAR[Kac]STGGKAPRKQ 0.0359

Tell us which binding score value is on record for R[Arg(Me2s)]K[Lys(Me)]K(Ac)R[Arg(Me2a)][Lys(Me2)]K[Lys(Me3)]R[Lys(Me)][Arg(Me2s)]KK(Ac)RK [background 02] 0.00906
